# System: 931267-113-T-J1-PDC multicell spheroid viability
# protocol-summary: Anticancer human tumor 931267-113-T-J1-PDC patient-derived colon adenocarcinoma cell line growth inhibition [PI3K]
# condition-details: second compound 1 µM; first compound 1 µM; stronger effect = lower value
metric-name: viability, T/C

Problem: Consider the compound CCN1CCN(Cc2ccc(Nc3ncc(F)c(-c4cc(F)c5nc(C)n(C(C)C)c5c4)n3)nc2)CC1 + CC(Nc1ccc2c(c1)OCCn1cc(N3C(=O)OCC3C(F)F)nc1-2)C(N)=O and give its recorded viability, T/C.
Solution: 46.3%

Next:
Problem: Item CC(Cn1ccc(-c2ccc(C#N)c(Cl)c2)n1)NC(=O)c1cc(C(C)O)[nH]n1 (stereo not given) + CC(Nc1ccc2c(c1)OCCn1cc(N3C(=O)OCC3C(F)F)nc1-2)C(N)=O : provide viability, T/C
Solution: 74.8%

Problem: Answer with the recorded viability, T/C for the compound listed here: C#Cc1c(F)ccc2cc(O)cc(-c3ncc4c(N5CC6CCC(C5)N6)nc(OCC56CCCN5CC(F)C6)nc4c3F)c12 (stereo not given) + CC(Nc1ncnc2nc[nH]c12)c1cc2cccc(Cl)c2c(=O)n1-c1ccccc1
Solution: 42.1%

Problem: Dear colleague, please send me the reported viability, T/C for Cn1ncc(Cl)c1-c1cc(C(=O)NC(CN)Cc2cccc(F)c2)sc1Cl (stereo not given) + COc1c(OCCCN2CCOCC2)ccc2c3n(c(=NC(=O)c4cnc(N)nc4)nc12)CCN3 when you can.
Solution: 33.9%

Problem: Give recorded viability, T/C. CCN1CCN(Cc2ccc(Nc3ncc(F)c(-c4cc(F)c5nc(C)n(C(C)C)c5c4)n3)nc2)CC1 + Cc1nc(NC(=O)N2CCCC2C(N)=O)sc1-c1ccnc(C(C)(C)C(F)(F)F)c1
Solution: 62.4%

* * *

# System: 931267-113-T-J1-PDC multicell spheroid viability
# protocol-summary: Anticancer human tumor 931267-113-T-J1-PDC cell line growth inhibition [PI3K]; active = viability on the fitted dose curve at most 10% of control; inactive = the rest;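 further: viability read 7 days after compound addition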
# condition-details: second compound 1 µM; first compound 3 µM
Choose one outcome from this list and give only that: 1.0 for active, 0.0 for inactive

Would you please look over these solved cases?
Problem: How did this test come out for Cn1cnc2c(F)c(Nc3ccc(Br)cc3Cl)c(C(=O)NOCCO)cc21 + CC(Nc1ncnc2nc[nH]c12)c1cc2cccc(Cl)c2c(=O)n1-c1ccccc1 ?
Solution: 0.0

Problem: Identify the outcome logged in this assay for the compound shown: Cn1cnc2c(F)c(Nc3ccc(Br)cc3Cl)c(C(=O)NOCCO)cc21 + COc1c(OCCCN2CCOCC2)ccc2c3n(c(=NC(=O)c4cnc(N)nc4)nc12)CCN3
Solution: 1.0

New cases:
Problem: What classification did Cn1cnc2c(F)c(Nc3ccc(Br)cc3Cl)c(C(=O)NOCCO)cc21 + CC(Nc1ccc2c(c1)OCCn1cc(N3C(=O)OCC3C(F)F)nc1-2)C(N)=O end up with in this test?
Solution: 1.0

Problem: Query: recorded result category for Cn1cnc2c(F)c(Nc3ccc(Br)cc3Cl)c(C(=O)NOCCO)cc21 + Cc1nc(NC(=O)N2CCCC2C(N)=O)sc1-c1ccnc(C(C)(C)C(F)(F)F)c1 in this test
Solution: 0.0

* * *

# Test system: 931267-113-T-J1-PDC multicell spheroid viability
# protocol-summary: Anticancer human tumor 931267-113-T-J1-PDC cell line growth inhibition [PI3K];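 further: viability read 7 days after compound addition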
# condition-details: curve of first compound; second compound 3.16 µM
# pIC50 per record follows
In simple prose, pIC50 is minus the logarithm base ten of a concentration in moles per litre.

Problem: State, in one line, measured pIC50 of Cn1ncc(Cl)c1-c1cc(C(=O)NC(CN)Cc2cccc(F)c2)sc1Cl (stereo not given) + Cc1nc(NC(=O)N2CCCC2C(N)=O)sc1-c1ccnc(C(C)(C)C(F)(F)F)c1
Solution: 5.38

Further cases:
Problem: Please give the documented pIC50 of C#Cc1c(F)ccc2cc(O)cc(-c3ncc4c(N5CC6CCC(C5)N6)nc(OCC56CCCN5CC(F)C6)nc4c3F)c12 (stereo not given) + CC(Nc1ncnc2nc[nH]c12)c1cc2cccc(Cl)c2c(=O)n1-c1ccccc1
Solution: 6.42

Problem: Check the records and state pIC50 for CC1(C)CCC(CN2CCN(c3ccc(C(=O)NS(=O)(=O)c4ccc(NCC5CCOCC5)c([N+](=O)[O-])c4)c(Oc4cnc5[nH]ccc5c4)c3)CC2)=C(c2ccc(Cl)cc2)C1 + CC(Nc1ncnc2nc[nH]c12)c1cc2cccc(Cl)c2c(=O)n1-c1ccccc1
Solution: 5.15

Problem: For the compound Cn1nccc1Nc1nccc(-c2ccn(C(CO)c3ccc(Cl)c(F)c3)c(=O)c2)n1 (stereo not given) + CC(Nc1ncnc2nc[nH]c12)c1cc2cccc(Cl)c2c(=O)n1-c1ccccc1 , report pIC50.
Solution: 5.28
